- test-target: Integrin alpha-V/beta-3 (Homo sapiens, UniProt P05106+P06756)
- Sequence (P05106 27-788 limits assumed): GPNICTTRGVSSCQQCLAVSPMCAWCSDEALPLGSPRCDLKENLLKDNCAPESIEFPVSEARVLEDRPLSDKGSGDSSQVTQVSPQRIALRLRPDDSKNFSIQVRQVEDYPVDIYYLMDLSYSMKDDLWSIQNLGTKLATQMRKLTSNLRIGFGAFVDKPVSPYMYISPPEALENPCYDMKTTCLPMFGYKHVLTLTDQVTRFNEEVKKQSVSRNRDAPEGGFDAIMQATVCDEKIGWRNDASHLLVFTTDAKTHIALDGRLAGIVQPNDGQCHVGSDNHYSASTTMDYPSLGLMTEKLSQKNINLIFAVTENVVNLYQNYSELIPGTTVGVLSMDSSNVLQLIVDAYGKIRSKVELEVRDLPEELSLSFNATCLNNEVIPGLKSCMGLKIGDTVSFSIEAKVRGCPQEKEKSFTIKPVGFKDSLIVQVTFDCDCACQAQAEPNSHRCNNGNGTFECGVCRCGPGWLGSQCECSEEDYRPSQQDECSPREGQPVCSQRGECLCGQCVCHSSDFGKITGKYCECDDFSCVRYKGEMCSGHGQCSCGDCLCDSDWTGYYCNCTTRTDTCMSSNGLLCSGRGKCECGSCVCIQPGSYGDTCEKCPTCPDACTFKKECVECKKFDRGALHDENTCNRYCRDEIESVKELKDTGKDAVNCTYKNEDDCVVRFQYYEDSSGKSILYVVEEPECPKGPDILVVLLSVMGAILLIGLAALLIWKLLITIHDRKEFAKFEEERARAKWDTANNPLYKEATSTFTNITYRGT
- Sequence (P06756 31-889 limits assumed): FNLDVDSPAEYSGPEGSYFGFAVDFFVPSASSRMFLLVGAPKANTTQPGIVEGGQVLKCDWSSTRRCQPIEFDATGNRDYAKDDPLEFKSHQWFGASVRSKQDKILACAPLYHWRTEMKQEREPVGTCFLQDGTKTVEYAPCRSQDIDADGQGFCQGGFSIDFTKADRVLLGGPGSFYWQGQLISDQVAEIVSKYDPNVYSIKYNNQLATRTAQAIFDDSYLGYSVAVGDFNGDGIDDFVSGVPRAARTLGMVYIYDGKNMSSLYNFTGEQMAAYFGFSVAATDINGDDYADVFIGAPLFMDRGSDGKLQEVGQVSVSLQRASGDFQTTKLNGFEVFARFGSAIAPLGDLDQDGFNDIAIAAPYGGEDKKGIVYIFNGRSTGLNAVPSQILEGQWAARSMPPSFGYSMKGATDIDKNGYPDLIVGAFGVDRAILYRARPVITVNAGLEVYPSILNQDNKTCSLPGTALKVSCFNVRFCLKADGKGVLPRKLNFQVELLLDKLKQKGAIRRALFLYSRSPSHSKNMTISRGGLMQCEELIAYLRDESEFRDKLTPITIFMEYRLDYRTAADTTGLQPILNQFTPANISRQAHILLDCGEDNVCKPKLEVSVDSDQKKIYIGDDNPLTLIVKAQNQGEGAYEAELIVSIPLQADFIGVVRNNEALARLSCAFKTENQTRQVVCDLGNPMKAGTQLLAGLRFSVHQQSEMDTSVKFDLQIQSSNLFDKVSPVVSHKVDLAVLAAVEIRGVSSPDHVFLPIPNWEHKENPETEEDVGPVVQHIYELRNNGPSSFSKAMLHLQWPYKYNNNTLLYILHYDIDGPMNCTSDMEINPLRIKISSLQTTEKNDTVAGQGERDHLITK
- Sequence (P06756 891-1048 limits assumed): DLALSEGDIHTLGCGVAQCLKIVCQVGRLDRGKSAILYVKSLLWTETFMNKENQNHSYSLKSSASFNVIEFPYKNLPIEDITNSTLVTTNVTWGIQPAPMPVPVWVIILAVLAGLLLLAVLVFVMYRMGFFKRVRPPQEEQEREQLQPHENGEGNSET
- method-summary: Inhibition of vitronectin binding to human alphaVbeta3 integrin after 2 hrs by ELISA
Peptide text beside a SMILES is read from it.
readout-name: pIC50
Numbers only, as −log10 of the molar value.

compound	readout-value
N=C(N)NCCC[C@H](N)C(=O)NCC(=O)N[C@@H](CC(=O)O)C(=O)O	4.92

Next item in the queue.
q: Tell me the measured pIC50 of N=C(N)NCCC[C@H](N)C(=O)NCC(=O)N[C@@H](CC(=O)O)C(=O)N[C@@H](Cc1ccccc1)C(=O)O (H-RGDF-OH) , please.
a: 5.39
